Hey, just so you know, these numbers are from paper PMC6754406.

target: Importin-α FL (full-length Importin-α), recombinant (human, UniProt P52292 1-529); assay: ITC; phospho-S25
Where no end group is shown, it is not given here. [ ]: non-standard residue; d: D form. pS = N[C@@H](COP(=O)(O)O)C(=O)O
reported endpoint: pKd
pKd here is simply -log10 of the concentration when that concentration is written in mol/L.

Data request, read-out pKd, for AKKKLREYQQRN[pS]PGVPTGAKKKKKIKN [GM130-NLS phospho-S25 (synthetic peptide with a phosphate moiety on Ser-25 of GM130, a.a. 13-40)] 5.68
